Molecular target: Adenosine receptor A1 (Homo sapiens)
Assay: Activity at human recombinant adenosine A1 receptor expressed in CHO cells assessed as cAMP level at 1 uM
Format: functional, cell-based
value type: Activity (%)

Nc1scc(CN2CCN(c3ccccn3)CC2)c1C(=O)c1ccc(Cl)cc1 ... 46

A. Nc1scc(CN2CCN(c3ccc(F)cc3)CC2)c1C(=O)c1ccc(Cl)cc1
B. Nc1scc(CN2CCN(c3ccc4c(c3)OCO4)CC2)c1C(=O)c1ccc(Cl)cc1
Returns: the label, A or B , whose recorded Activity is the lower number. Output the label that corresponds to your choice. B
(B: 23%, A: 63%)

###

Molecular target: Adenosine receptor A1 (Homo sapiens)
Test: Activity at human recombinant adenosine A1 receptor expressed in CHO cells assessed as cAMP level at 1 uM
Format: functional, cell-based
value type: Activity (%)

Below: 3 molecules and their reported Activity.
CN1CCN(Cc2csc(N)c2C(=O)c2ccc(Cl)cc2)CC1 ... 1
Nc1scc(CN2CCN(c3ncccn3)CC2)c1C(=O)c1ccc(Cl)cc1 ... 25
N#Cc1ccc(N2CCN(Cc3csc(N)c3C(=O)c3ccc(Cl)cc3)CC2)cc1 ... 54

a. Nc1scc(CN2CCN(c3ccc(Cl)cc3)CC2)c1C(=O)c1ccc(Cl)cc1
b. Nc1scc(CN2CCN(Cc3ccccc3)CC2)c1C(=O)c1ccc(Cl)cc1
c. Nc1scc(CN2CCN(C3CCCCC3)CC2)c1C(=O)c1ccc(Cl)cc1
Could you please order the items by Activity, going from the lowest number to the highest? Response field: labels, in requested order. c, b, a
